- test_summary: Blood concentration in the guinea pig cardiotoxicity model
- Type: in vivo
- settings: male, whole blood, intravenous, guinea pigs, 0.01 mg/kg infusion for 10 minutes, after 1 hour
measure: concentration at 1 h

Req: Using the record for CCc1cc(/C(C)=N/OCc2ccc(C3CCCCC3)c(C(F)(F)F)c2)ccc1CN1CC(C(=O)O)C1 , report its concentration at 1 h.
Resp: < 4 nM
